# Protocol summary: Study of pharmacokinetics in mice in vivo
# Design: species or system C57BL/6 mice
# Recorded conditions: male, C57BL/6, mouse, po (intragastric), 50 mg/kg, plasma
Measured endpoint: half-life (h)

{"Chemical string": "Cc1cc(C(F)(F)F)cc2ccn(Cc3cccc(C(=O)O)c3F)c12", "Measured endpoint": "half-life", "Unit annotation": "h", "Numeric value": 3.39}

a = O=C(O)c1cccc(Cn2ccc3cc(Cl)cc(Cl)c32)c1F
b = O=C(O)c1cccc(Cn2ncc3cc(Cl)c(Cl)c(Cl)c32)c1F
INPUT: Lower value for measured half-life? Options: a , b Bench note: the answer is the label of the chosen record.
OUTPUT: a
(a: 3.49 h, b: 9.81 h)

---

# Experimental target: MRGPRX4 (Homo sapiens)
# Protocol summary: Detection of MRGPRX4 activity (IP1 HTRF, deoxycholic acid stimulation)
# Recorded conditions: HEK-293 cells stably expressing MRGPRX4; compound 45 min, then deoxycholic acid 45 min; IP1 content by HTRF
Measured endpoint: IC50

{"Molecule": "Cc1ccc2c(ccn2Cc2cccc(C(=O)O)c2F)c1Cl [Compound 62]", "IC50": "≤ 200 nM"}
{"Molecule": "O=C(O)c1cccc(Cn2ccc3cc(Cl)cc(Cl)c32)c1Cl [Compound 82]", "IC50": "200 to 500 nM"}
{"Molecule": "CC(c1cccc(C(=O)O)c1F)n1ncc2cc(Cl)c(Cl)c(Cl)c21 (centres unmarked) [Compound 39]", "IC50": "≤ 200 nM"}
{"Molecule": "Cc1cc(OC(F)(F)F)cc2ccn(Cc3cccc(C(=O)O)c3F)c12 [Compound 87]", "IC50": "≤ 200 nM"}
{"Molecule": "O=C(O)c1cccc(Cn2ncc3cc(Cl)c(Cl)c(Cl)c32)c1F [Compound 28]", "IC50": "≤ 200 nM"}
{"Molecule": "O=C(O)c1cccc(Cn2ccc3c(Cl)cc(Cl)cc32)c1F [Compound 79]", "IC50": "≤ 200 nM"}
{"Molecule": "O=C(O)c1cccc(Cn2ncc3c(F)c(Cl)ccc32)c1F [Compound 48]", "IC50": "200 to 500 nM"}
{"Molecule": "O=C(O)c1cccc(Cn2ccc3c(F)c(Cl)ccc32)c1F [Compound 66]", "IC50": "≤ 200 nM"}
{"Molecule": "O=C(O)c1cccc(Cn2ccc3cc(Cl)c(Cl)cc32)c1F [Compound 6]", "IC50": "≤ 200 nM"}
{"Molecule": "O=C(O)c1cccc(Cn2ncc3cc(Cl)cc(Cl)c32)c1F [Compound 30]", "IC50": "≤ 200 nM"}

Could you now consider this next molecule?
INPUT: Using MRGPRX4 (Homo sapiens) as the test system, report measured IC50 of O=C(O)c1cccc(Cn2ncc3cc(C(F)(F)F)cc(Br)c32)c1F [Compound 22] .
OUTPUT: 200 to 500 nM

---

# Experimental target: MRGPRX4 (Homo sapiens, UniProt Q96LA9)
# Sequence (Q96LA9 whole entry): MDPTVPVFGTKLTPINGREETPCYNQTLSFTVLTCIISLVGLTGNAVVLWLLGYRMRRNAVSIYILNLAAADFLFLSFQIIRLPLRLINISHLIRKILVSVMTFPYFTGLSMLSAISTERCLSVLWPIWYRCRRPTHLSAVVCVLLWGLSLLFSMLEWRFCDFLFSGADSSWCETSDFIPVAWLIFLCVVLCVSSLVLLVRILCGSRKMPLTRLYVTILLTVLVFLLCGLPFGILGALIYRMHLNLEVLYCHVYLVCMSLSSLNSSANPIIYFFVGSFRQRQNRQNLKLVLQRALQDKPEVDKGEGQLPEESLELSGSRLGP
# Protocol summary: Detection of MRGPRX4 activity (IP1 HTRF, deoxycholic acid stimulation)
# Recorded conditions: HEK-293 cells stably expressing MRGPRX4; compound 45 min, then deoxycholic acid 45 min; IP1 content by HTRF
Examples of molecules with documented IC50 follow.

// known answers, use as guide
{"Chemical string": "O=C(O)c1cccc(Cn2ccc3c(Cl)c(Cl)ccc32)c1F", "Experimental target": "MRGPRX4 (Homo sapiens, UniProt Q96LA9)", "Result": "≤ 200 nM"}
{"Chemical string": "O=C(O)c1cccc(Cn2ncc3cc(Cl)cc(Br)c32)c1F", "Experimental target": "MRGPRX4 (Homo sapiens, UniProt Q96LA9)", "Result": "≤ 200 nM"}
{"Chemical string": "O=C(O)c1cccc(Cn2ccc3cc(C(F)(F)F)cc(Br)c32)c1F", "Experimental target": "MRGPRX4 (Homo sapiens, UniProt Q96LA9)", "Result": "≤ 200 nM"}
{"Chemical string": "O=C(O)c1cccc(Cn2ncc3cc(OC(F)(F)F)cc(Br)c32)c1F", "Experimental target": "MRGPRX4 (Homo sapiens, UniProt Q96LA9)", "Result": "≤ 200 nM"}

Could you now consider this next molecule?
INPUT: Retrieve IC50 measured for O=C(O)c1cc(Cn2ncc3cc(C(F)(F)F)cc(Br)c32)ccc1F and print it.
OUTPUT: 500 to 1000 nM

Value source: patent US20260274800A1
